- target.of.assay: T1, huMICA*008 alpha 3-his (human)
- T1 construct: whole construct entry: GS, alpha 3 domain (Thr204-Ser297), GNS, His8; also the construct of the FPOP experiment; also called MICA008.His; MICA*008 alpha3 construct
- T1 chain: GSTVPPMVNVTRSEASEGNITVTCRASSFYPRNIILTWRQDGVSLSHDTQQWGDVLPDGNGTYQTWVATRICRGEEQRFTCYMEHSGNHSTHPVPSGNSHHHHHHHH
- procedure.text: SPR, Biacore 8K, antibody on Protein A chip
measure: Kd (nM)
Enter your answer as a number in nM; do not include the unit.

Take a look at these entries with their results.
[
  {
    "binder": "1D5v12 (antibody, IgG1, V domains shown, humanized variant of 1D5) VH: EVQLVQSGAEVKKPGASVKVSCKASGYAFTSQNIYWVRQAPGQGLEWIGYIEPYNVVPMYNPKFKGRVTITRDTSTSTAYLELSSLRSEDTAVYYCARSGSSNFDYWGQGTLVTVSS VL: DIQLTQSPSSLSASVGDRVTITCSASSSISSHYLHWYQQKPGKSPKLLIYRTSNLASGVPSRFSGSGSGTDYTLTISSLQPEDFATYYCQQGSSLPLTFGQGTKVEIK",
    "Kd [nM]": 3.66
  },
  {
    "binder": "13A9v2 (antibody, IgG1, V domains shown, humanized variant of 13A9) VH: EVQLVQSGAEVKKPGASVKVSCKASGYAFTNYLIEWVRQAPGQGLEWIGAINPGSGATNYNEKFKDRATLTADKSTNTAYLELSSLRSEDTAVYFCARFLGNYFDNWGQGTLVTVSS VL: DIQMTQSPSSLSASVGDRVTITCRASGNIHSYLAWYQQKPGKAPKLLIYYAETLADGVPSRFSGSGSGTDFTLTISSLQPEDFATYYCQQFWTTPYTFGQGTKVEIK",
    "Kd [nM]": 2.56
  }
]

Continue with the next binder.
Input: Would you kindly share the measured Kd for 1D5v2 (antibody, IgG1, V domains shown, humanized variant of 1D5) VH: EVQLVQSGAEVKKPGASVKVSCKASGYAFTSQNIYWVRQAPGQGLEWMGYIEPYNVVPMYNPKFKGRVTMTTDTSTSTAYMELRSLRSDDTAVYYCARSGSSNFDYWGQGTLVTVSS VL: EIVLTQSPDFQSVTPKEKVTITCSASSSISSHYLHWYQQKPDQSPKLLIYRTSNLASGVPSRFSGSGSGTDYTLTINSLEAEDAATYYCQQGSSLPLTFGQGTKVEIK ?
Output: 0.89
